Kindly state Population Fragmented Nuclei (%) for each of the entries shown.
test system: U2OS; test: Multiplex assay against U2OS; assay type: toxicity, cell-based; details: human, 24 h, 10 µM, compound concentration 10 uM, replicate 2
Numbers only, in %.

COc1cc(C(=O)N(CCCc2ccccc2)Cc2ccc(CC(=O)O)cc2)cc(OC)c1C | 12

Could you report Population Fragmented Nuclei (%) for every entry in the following list?
1. O=C(NCCO)c1cccc(-c2cc(Nc3ccc(OC(F)(F)F)cc3)ncn2)c1
2. C[C@H]1[C@H]2CC[C@H]3[C@@H]4CC=C5C[C@@H](N(C)C)CC[C@]5(C)[C@H]4CC[C@]23CN1C
3. CCCn1c(=O)c2[nH]c(C3CCCC3)nc2n(CCC)c1=O

1: 15; 2: 19; 3: 21

# batch size: 2; output Population Fragmented Nuclei (%) per entry
1. CC(=O)NCCc1c(Cc2ccccc2)[nH]c2ccccc12
2. C[C@@H]1C[C@H]2[C@@H]3CCC4=CC(=O)C=C[C@]4(C)[C@@]3(F)[C@@H](O)C[C@]2(C)[C@@]1(O)C(=O)CO

1: 11; 2: 14
